meta.source: ChEMBL document CHEMBL1201862

Test system: NCI/ADR-RES
ASSAY_PROTOCOL: NCI tumour cell line growth inhibition, 48 h
The source made the active and inactive calls. Rule as the data show it: active = GI50 up to about 1.1 µM and inactive = higher.
METRIC: GI50

Which GI50 value belongs to CN1N(c2ccccc2)C(=O)C2=NC=C(C#N)C(=N)C21C (centres undefined) ? > 100 µM (inactive)

For `Cc1ccc(S(=O)(=O)NNC(=S)Nc2cccc3ccccc23)cc1` then? 38.1 µM (inactive)

For CC(=O)OC1C(Oc2c(C)cc3c(c2O)[C@@H](C)CC[C@@H]3[C@@H](C)CCC=C(C)C)OCC(O)C1O (some centres undefined) then? 21.1 µM (inactive)

For CCOc1c(OC)cc(-c2nc3n(n2)C(=O)C(CC)S3)cc1OC (centres undefined) then? > 10 µM (inactive)

For `CN(C)/N=C1\C=C2CC[C@H](O[Si](C)(C)C(C)(C)C)[C@@]2(C)CC1` then? 18.2 µM (inactive)

Next:
Which GI50 value belongs to CC(C)(C)N/N=C(\C(=O)NC1=C(Cl)C(=O)c2ccccc2C1=O)C1C=CCS1(=O)=O (centres undefined) ? 22 µM (inactive)

For `N=c1oc2ccccc2cc1C(=O)Nc1cccc2ccccc12` then? > 100 µM (inactive)

For `CCN(CCCl)c1cc(CN(C)C)cc(NC(=O)c2cc(C(=O)Nc3cc(CN(C)C)cc(N(CC)CCCl)c3)n(C)n2)c1` then? 10.3 µM (inactive)

For `O=C(Nc1cccc2cnccc12)c1cc2c(cc1Cl)Sc1nccn1S2(=O)=O` then? 14.4 µM (inactive)

====

System: XF498
ASSAY_PROTOCOL: NCI tumour cell line growth inhibition, 48 h
Calls of active or inactive are those of the source. Rule as the data show it: active = GI50 up to about 1.1 µM and inactive = higher.
Listed compounds paired with reported GI50

Which GI50 value belongs to CC1C=C(OC(=O)c2ccccc2)C(=O)C(n2cc(F)c(=O)[nH]c2=O)O1 (stereo not given) ? 48.1 µM (inactive)

Next:
Which GI50 value belongs to CCCCCC[C@@H]1CCC2C(CO)[C@@H](O)CC[C@@H]2C1 (stereo not given in full) ? 24.7 µM (inactive)

For `O=C(O)c1c2c(cc3c(=O)c4ccccc4[nH]c13)CCCC2` then? > 100 µM (inactive)

For `CN(CCCN1C(=O)c2cccc3cc([N+](=O)[O-])cc(c23)C1=O)CCN(C)CCCN1C(=O)c2cccc3cc([N+](=O)[O-])cc(c23)C1=O` then? > 39.3 µM (inactive)

For Cn1c(=O)oc2cc(C3CCC(=O)N3Cc3csc(-c4ccccc4)n3)ccc21 (stereo not given) then? 67.1 µM (inactive)

====

Test system: RPMI-8226
ASSAY_PROTOCOL: NCI tumour cell line growth inhibition, 48 h
Activity calls are given as the source filed them. No stated cut-off is given here; in the data, active = GI50 up to about 1.1 µM and inactive = higher.
Pick one and only one: YES (active), NO (inactive)

Look up the recorded call for `N#Cc1c(-c2ccccc2)cc(Nc2ccc(Cl)cc2)n2c1nc1ccccc12` in this test. NO

Now consider a different molecule.
Look up the recorded call for O=C(CC1(O)C(=O)Nc2c(Cl)ccc(Cl)c21)c1ccc(Cl)cc1 (stereo not given) in this test. NO

====

Tested on: RXF 631
ASSAY_PROTOCOL: NCI tumour cell line growth inhibition, 48 h
The source made the active and inactive calls. Cut-off read from the data, not from the text of the source: active = GI50 up to about 1.1 µM and inactive = higher.
Pick one and only one: active, inactive

Please review the following examples before continuing.
Look up the recorded call for Nc1nc2c(c(=O)[n-]1)[n+](CCO)cn2C1OC(CO)C(O)C1O (configuration not stated) in this test. inactive

For COC(=O)C(Cc1ccccc1)NC(=O)Cn1ccnc1[N+](=O)[O-] (configuration not stated) then? inactive

For `Cc1c(Cl)cccc1NC(=O)/C(Cl)=C(\Cl)C(=O)O` then? inactive

For `CCCCCCCCCCCCSC(=S)c1c(C)[nH]n(CCCCCCCCCCCC)c1=O` then? inactive

For `C=C=C(Sc1ccccc1)C(C)(C)O` then? inactive

Next:
Look up the recorded call for `Cc1cc(C)nc(NS(=O)(=O)c2ccc(Nc3c4ccccc4nc4c(C(=O)NCCN(C)C)cccc34)cc2)n1` in this test. active

For `CCCc1n[nH]c(CCC(=O)N(Cc2ccccc2)Cc2ccccc2)c1CC` then? inactive

For `CN(C)CCC(/C=C/c1ccccc1)=N\Nc1ccc(Cl)c(Cl)c1` then? inactive

For `CN(C)CCn1c2c3ccccc3ccc2c2oc(=O)c3ccccc3c21` then? inactive

For CCNC(=O)O/N=C1\CCC2[C@@H]3CC=C4C[C@@H](OC5CCCCO5)CC[C@]4(C)C3CC[C@]12C (some centres not stated) then? inactive
